- study.target: LMNA Prelamin-A/C (Homo sapiens)
- Construct: isoTOP-ABPP experiments performed in cell lysates (in vitro); endogenous in cells; host or cells: MDA-MB-231 soluble lysate
- Sequence (P02545 1-664): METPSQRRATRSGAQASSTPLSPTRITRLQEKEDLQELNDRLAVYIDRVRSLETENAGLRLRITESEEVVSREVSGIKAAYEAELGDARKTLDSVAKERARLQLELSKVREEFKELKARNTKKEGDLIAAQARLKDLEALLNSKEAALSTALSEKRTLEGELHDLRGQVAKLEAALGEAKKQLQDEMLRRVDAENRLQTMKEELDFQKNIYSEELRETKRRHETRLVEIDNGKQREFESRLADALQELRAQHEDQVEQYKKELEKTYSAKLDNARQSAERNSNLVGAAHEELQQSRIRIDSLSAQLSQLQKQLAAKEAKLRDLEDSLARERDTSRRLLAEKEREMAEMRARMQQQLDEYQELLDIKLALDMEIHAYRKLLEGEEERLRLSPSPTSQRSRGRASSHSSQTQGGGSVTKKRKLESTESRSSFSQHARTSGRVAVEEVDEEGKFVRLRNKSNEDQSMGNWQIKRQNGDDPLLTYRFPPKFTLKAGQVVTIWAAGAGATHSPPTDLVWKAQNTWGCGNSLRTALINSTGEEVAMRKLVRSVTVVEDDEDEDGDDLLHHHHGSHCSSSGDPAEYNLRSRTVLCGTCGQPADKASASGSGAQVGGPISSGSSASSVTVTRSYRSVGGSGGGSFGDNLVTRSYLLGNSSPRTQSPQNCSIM
- test.method.notes: competitive isoTOP-ABPP
- Format: binding
- measurement.conditions: 50 uM, in vitro, sol, 231
result.type: isoTOP-ABPP ratio (R) at liganded lysine P02545_K135
Enter a number only.

[
  {
    "molecule": "O=C(Oc1ccc([N+](=O)[O-])cc1[N+](=O)[O-])c1ccccc1Nc1cccc(C(F)(F)F)c1",
    "reported.result": 1.2
  },
  {
    "molecule": "O=C(Oc1ccc([N+](=O)[O-])cc1[N+](=O)[O-])c1ccc2ccccc2n1",
    "reported.result": 0.7
  },
  {
    "molecule": "O=C(CC12CC3CC(CC(C3)C1)C2)Oc1ccc([N+](=O)[O-])cc1[N+](=O)[O-]",
    "reported.result": 0.8
  }
]

Let us examine a further case.
Any idea what isoTOP-ABPP ratio (R) at liganded lysine P02545_K135 was measured for CC(=O)Oc1ccc([N+](=O)[O-])cc1[N+](=O)[O-] [fragment 43, 2,4-Dinitrophenyl acetate] ? 20.0

###

- study.target: HK1 Hexokinase-1 (Homo sapiens)
- Construct: isoTOP-ABPP experiments performed in cell lysates (in vitro); endogenous in cells; host or cells: soluble proteome of human cancer cell lines (MDA-MB-231; Ramos and Jurkat also prepared)
- Sequence (P19367 whole entry): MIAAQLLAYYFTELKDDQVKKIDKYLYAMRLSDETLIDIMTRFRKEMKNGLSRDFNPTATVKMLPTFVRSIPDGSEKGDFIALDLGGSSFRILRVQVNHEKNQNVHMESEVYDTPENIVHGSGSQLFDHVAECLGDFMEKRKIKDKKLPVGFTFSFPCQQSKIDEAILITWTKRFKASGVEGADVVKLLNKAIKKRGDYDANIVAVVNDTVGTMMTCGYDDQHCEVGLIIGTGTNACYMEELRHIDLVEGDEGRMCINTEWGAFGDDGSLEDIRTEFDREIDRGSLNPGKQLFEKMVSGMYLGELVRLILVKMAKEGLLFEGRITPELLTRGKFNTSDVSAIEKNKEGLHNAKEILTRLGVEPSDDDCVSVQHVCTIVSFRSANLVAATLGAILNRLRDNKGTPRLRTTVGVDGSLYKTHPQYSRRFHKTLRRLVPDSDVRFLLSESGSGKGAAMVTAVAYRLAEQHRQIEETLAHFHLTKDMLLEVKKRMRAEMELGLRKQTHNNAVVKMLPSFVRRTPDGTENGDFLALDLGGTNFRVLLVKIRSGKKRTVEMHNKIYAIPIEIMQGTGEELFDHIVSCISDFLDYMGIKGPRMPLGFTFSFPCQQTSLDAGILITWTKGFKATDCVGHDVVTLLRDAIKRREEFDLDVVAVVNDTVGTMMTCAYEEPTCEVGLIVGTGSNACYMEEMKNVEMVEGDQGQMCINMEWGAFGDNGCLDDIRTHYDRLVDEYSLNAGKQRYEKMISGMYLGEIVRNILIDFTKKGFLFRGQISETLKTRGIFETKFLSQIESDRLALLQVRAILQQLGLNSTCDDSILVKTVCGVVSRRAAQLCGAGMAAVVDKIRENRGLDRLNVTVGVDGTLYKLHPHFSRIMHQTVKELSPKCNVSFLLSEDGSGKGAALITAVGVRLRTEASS
- test.method.notes: competitive isoTOP-ABPP
- Format: binding
- measurement.conditions: 50 uM_231_sol_in vitro
Measured isoTOP-ABPP ratio, lysine P19367_K510 by item
Reply: number alone, nothing else.

Check out these entries, answers already filled in.
[
  {
    "compound": "O=C(Oc1c(F)c(F)c(C(F)(F)F)c(F)c1F)c1cc(C(F)(F)F)cc(C(F)(F)F)c1 [fragment 47]",
    "isoTOP-ABPP ratio, lysine P19367_K510": 0.9
  },
  {
    "compound": "O=C(ON1C(=O)CCC1=O)c1cc(C(F)(F)F)cc(C(F)(F)F)c1 [fragment 46]",
    "isoTOP-ABPP ratio, lysine P19367_K510": 1.0
  },
  {
    "compound": "O=C(CCc1ccc2c(c1)OCO2)Oc1ccc([N+](=O)[O-])cc1[N+](=O)[O-] [fragment 45]",
    "isoTOP-ABPP ratio, lysine P19367_K510": 5.3
  }
]

Could you share which isoTOP-ABPP ratio, lysine P19367_K510 value was measured for N#Cc1ccc(C(=O)Oc2ccc([N+](=O)[O-])cc2[N+](=O)[O-])cc1 [fragment 44, 2,4-Dinitrophenyl 4-cyanobenzoate] ? 1.2

Suppose we examine the compound NC(=O)c1cc(C(F)(F)F)cc(C(F)(F)F)c1 [fragment 51, reference compound] ; what isoTOP-ABPP ratio, lysine P19367_K510 value has been reported? 1.0

Sample O=C(Oc1c(F)c(F)cc(F)c1F)c1cc(C(F)(F)F)cc(C(F)(F)F)c1 [fragment 48] — what was its isoTOP-ABPP ratio, lysine P19367_K510? 0.8

Source listed as patent US20210255193A1.
